# STUDY_TARGET: human M2 receptor (Homo sapiens)
# CONDITION_CONTEXT: Receptor activity EC50, M2-GIRK1/4 activation test, acetylcholine at EC20; allosteric potency; in some cases mean values from two or more determinations
ENDPOINT_LABEL: EC50 (nM)

The following compounds have reported results that may help.
* CC[C@H](NC(=O)c1cn(-c2ccc(F)cc2F)c2nc(N3CCC(F)(F)C3)ccc2c1=O)C(F)(F)F [Example 75] | 73
* CC[C@H](NC(=O)c1cn(-c2c(F)cccc2Cl)c2nc(N3C[C@@H](O)[C@H](O)C3)ccc2c1=O)C(F)(F)F [Example 346] | 50
* CCC(NC(=O)c1cn(-c2ccc(F)cc2F)c2nc(NCCF)ccc2c1=O)C(F)(F)F (racemic) [Example 85] | 118

(a) CC(C)(C)C(NC(=O)c1cn(-c2c(F)cc(F)cc2F)c2nc(N3CCNC3=O)ccc2c1=O)C(F)(F)F (stereo in doubt) [Example 360]
(b) CC[C@H](NC(=O)c1cn(-c2ccccc2F)c2nc(N(C)C)ccc2c1=O)C(F)(F)F [Example 203]
(c) CC[C@@H](NC(=O)c1cn(-c2ccc(F)cc2F)c2nc(N3CC4CC4(O)C3)ccc2c1=O)C(F)(F)F (single isomer, unassigned) [Example 315]
Task: Output the entries ranked by EC50 from maximum down to minimum. Answer format: list of labels, ordered as asked.
Result: b, c, a

====

# STUDY_TARGET: human M2 receptor (Homo sapiens, UniProt P08172)
# CONDITION_CONTEXT: Receptor activity EC50, M2-GIRK1/4 activation test, acetylcholine at EC20; allosteric potency; in some cases mean values from two or more determinations
ENDPOINT_LABEL: EC50 (nM)

* O=C(N[C@@H](C1CC1)C(F)(F)F)c1cn(-c2c(F)cccc2Cl)c2nc(N3C[C@@H](O)[C@H](O)C3)ccc2c1=O [Example 347] | 34
* C[C@H](NC(=O)c1cn(-c2c(F)cccc2F)c2nc(N3CC4CC4(O)C3)ccc2c1=O)C(F)(F)F (mixture of isomers) [Example 311] | 25

(A) CCCC(NC(=O)c1cn(-c2ccc(F)cc2F)c2nc(N(C)C)ccc2c1=O)C(F)(F)F (racemic) [Example 144]
(B) O=C(NC(C1CC1)C(F)(F)F)c1cn(-c2ccccc2Cl)c2nc(N3C[C@@H](O)CC3=O)ccc2c1=O (mixture of isomers) [Example 279]
Task: For the two items A and B , which reports the higher EC50 value? // return label of chosen record
Result: B

====

# STUDY_TARGET: human M2 receptor (Homo sapiens, UniProt P08172)
# Sequence (P08172 1-466): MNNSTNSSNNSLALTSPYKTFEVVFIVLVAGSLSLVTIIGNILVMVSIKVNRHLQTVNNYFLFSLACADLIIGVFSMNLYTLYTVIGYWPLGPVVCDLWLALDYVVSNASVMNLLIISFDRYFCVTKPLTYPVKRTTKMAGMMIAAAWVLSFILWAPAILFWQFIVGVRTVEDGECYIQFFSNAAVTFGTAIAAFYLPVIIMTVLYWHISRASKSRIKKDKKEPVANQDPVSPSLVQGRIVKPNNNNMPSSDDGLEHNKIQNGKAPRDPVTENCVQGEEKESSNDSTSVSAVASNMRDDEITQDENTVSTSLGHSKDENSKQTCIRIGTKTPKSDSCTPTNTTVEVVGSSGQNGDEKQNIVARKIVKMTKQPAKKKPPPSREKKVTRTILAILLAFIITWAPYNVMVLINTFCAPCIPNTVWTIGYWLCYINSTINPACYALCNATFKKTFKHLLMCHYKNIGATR
# CONDITION_CONTEXT: Receptor activity EC50, M2-GIRK1/4 activation test, acetylcholine at EC20; allosteric potency; in some cases mean values from two or more determinations
ENDPOINT_LABEL: EC50 (nM)

The following molecules have reported results that may help.
- O=C(NC(c1c(F)cccc1F)C(F)(F)F)c1cn(-c2ccc(F)cc2F)c2nc(N3CCCC(O)C3=O)ccc2c1=O (single isomer, unassigned) [Example 248]: 330
- CN(CC(F)F)c1ccc2c(=O)c(C(=O)NC(C(F)(F)F)C(F)(F)F)cn(-c3ccc(F)cc3F)c2n1: 73

(I) CCCC(NC(=O)c1cn(-c2ccc(F)cc2F)c2nc(N3CCC(F)(F)C3)ccc2c1=O)C(F)(F)F (racemic)
(II) CC[C@@H](NC(=O)c1cn(-c2ccccc2C(F)(F)F)c2nc(N3C[C@@H](O)CC3=O)ccc2c1=O)C(F)(F)F (single isomer, unassigned) [Example 270]
Task: Decide: I or II , by lowest recorded EC50. // return label of chosen record
Result: I
(I: 69 nM, II: 1600 nM)

(1) CC(C)Nc1ccc2c(=O)c(C(=O)NC34CC5CC(CC(C5)C3)C4)cn(-c3ccc(F)cc3F)c2n1
(2) CC[C@@H](NC(=O)c1cn(-c2c(F)cccc2Cl)c2nc(N3C[C@@H](O)CC3=O)ccc2c1=O)C(F)(F)F
Task: Decide: 1 or 2 , by lowest recorded EC50. // return label of chosen record
Result: 2
(2: 14 nM, 1: 184 nM)

====

# STUDY_TARGET: human M2 receptor (Homo sapiens)
# CONDITION_CONTEXT: Receptor activity EC50, M2-GIRK1/4 activation test, acetylcholine at EC20; allosteric potency; in some cases mean values from two or more determinations
ENDPOINT_LABEL: EC50 (nM)

The following molecules have reported results that may help.
- CC(NC(=O)c1cn(-c2ccc(F)cc2F)c2nc(NCC(F)(F)F)ccc2c1=O)C(F)(F)F (stereo not shown): 213
- O=C(NC12CC3CC(CC(C3)C1)C2)c1cn(-c2ccc(F)cc2F)c2nc(N3CC(F)(F)C(F)(F)C3)ccc2c1=O: 666

(P) CC[C@@H](NC(=O)c1cn(-c2ccc(F)cc2F)c2nc(N3CCC(C)(F)C3)ccc2c1=O)C(F)(F)F (mixture of isomers)
(Q) O=C(NC(c1c(F)cccc1F)C(F)(F)F)c1cn(-c2ccc(F)cc2F)c2nc(N3CCCC(O)C3=O)ccc2c1=O (single isomer, unassigned) [Example 251]
Task: For the two items P and Q , which reports the higher EC50 value? // return label of chosen record
Result: Q

====

# STUDY_TARGET: human M2 receptor (Homo sapiens, UniProt P08172)
# CONDITION_CONTEXT: Receptor activity EC50, M2-GIRK1/4 activation test, acetylcholine at EC20; allosteric potency; in some cases mean values from two or more determinations
ENDPOINT_LABEL: EC50 (nM)

- CN(C)c1ccc2c(=O)c(C(=O)NC(Cc3ccccc3)C(F)(F)F)cn(-c3ccc(F)cc3F)c2n1 (racemic): 37

(P) CC[C@@H](NC(=O)c1cn(-c2c(F)cccc2F)c2nc(N3CC(CO)OC3=O)ccc2c1=O)C(F)(F)F (mixture of isomers)
(Q) CC1(O)CCCN(c2ccc3c(=O)c(C(=O)NC45CC6CC(CC(C6)C4)C5)cn(-c4ccc(F)cc4F)c3n2)C1 (racemic)
(R) CN(CCO)c1ccc2c(=O)c(C(=O)N[C@@H](C3CC3)C(F)(F)F)cn(-c3c(F)cc(F)cc3F)c2n1
Task: Order the entries by their reported EC50, beginning at the minimum. Answer format: list of labels, ordered as asked.
Result: R, Q, P
(R: 28 nM, Q: 90 nM, P: 280 nM)

====

# STUDY_TARGET: human M2 receptor (Homo sapiens, UniProt P08172)
# CONDITION_CONTEXT: read-out: Efficiency, boosting of the acetylcholine effect at EC20 acetylcholine concentration; M2-GIRK1/4 reporter cells
ENDPOINT_LABEL: Emax (%)

* CC(C)(C)NC(=O)c1cn(-c2c(F)cc(F)cc2F)c2nc(N3C[C@@H](O)[C@H](O)C3)ccc2c1=O | 100
* O=C(N[C@@H](C1CC1)C(F)(F)F)c1cn(-c2c(F)cc(F)cc2F)c2nc(N3CCC(CO)C3=O)ccc2c1=O (stereo partly shown) | 98.5
* CC(C)(CC(F)(F)F)NC(=O)c1cn(-c2c(F)cc(F)cc2F)c2nc(N3C[C@@H](O)CC3=O)ccc2c1=O | 100
* CC(C)(NC(=O)c1cn(-c2c(F)cc(F)cc2F)c2nc(N3C[C@@H](O)CC3=O)ccc2c1=O)C(F)F | 100
* CC[C@@H](NC(=O)c1cn(-c2ccc(F)cc2F)c2nc(N3C(=O)NCC3C)ccc2c1=O)C(F)(F)F (stereo partly shown) | 92
* O=C(Nc1c(Cl)cccc1Cl)c1cn(-c2c(F)cc(F)cc2F)c2nc(N3CCNC3=O)ccc2c1=O | 95.5
* CC(C)(CC(F)(F)F)NC(=O)c1cn(-c2c(F)cc(F)cc2F)c2nc(N3C[C@@H](O)[C@@H](O)C3)ccc2c1=O | 100
* CC[C@H](NC(=O)c1cn(-c2c(F)cc(F)cc2Cl)c2nc(N3CC4CC4(O)C3)ccc2c1=O)C(F)(F)F (mixture of isomers) | 100
* O=C(N[C@@H](C1CC1)C(F)(F)F)c1cn(-c2c(F)cc(F)cc2F)c2nc(N3C[C@@H](O)CC3=O)ccc2c1=O | 98.3
* CC1C(=O)N(c2ccc3c(=O)c(C(=O)N[C@@H](C4CC4)C(F)(F)F)cn(-c4c(F)cc(F)cc4F)c3n2)CC1O (stereo partly shown) | 97.5
* CC1CC(=O)N(c2ccc3c(=O)c(C(=O)NC(C4CC4)C(F)(F)F)cn(-c4c(F)cc(F)cc4F)c3n2)C1 (stereo in doubt) | 97.5
* CC[C@H](NC(=O)c1cn(-c2c(F)cc(F)cc2F)c2nc(NC(C)(C)C)ccc2c1=O)C(F)(F)F | 96
* O=C(NC(C1CCC1)C(F)(F)F)c1cn(-c2c(F)cc(F)cc2F)c2nc(N3C[C@@H](O)CC3=O)ccc2c1=O (single isomer, unassigned) [Example 506] | 100

// data source = patent US20190367516A1
